Measured pIC50 of individual entries
Molecular target: hROMK (hKir1.1) (Homo sapiens, UniProt P48048)
Sequence (P48048 1-391): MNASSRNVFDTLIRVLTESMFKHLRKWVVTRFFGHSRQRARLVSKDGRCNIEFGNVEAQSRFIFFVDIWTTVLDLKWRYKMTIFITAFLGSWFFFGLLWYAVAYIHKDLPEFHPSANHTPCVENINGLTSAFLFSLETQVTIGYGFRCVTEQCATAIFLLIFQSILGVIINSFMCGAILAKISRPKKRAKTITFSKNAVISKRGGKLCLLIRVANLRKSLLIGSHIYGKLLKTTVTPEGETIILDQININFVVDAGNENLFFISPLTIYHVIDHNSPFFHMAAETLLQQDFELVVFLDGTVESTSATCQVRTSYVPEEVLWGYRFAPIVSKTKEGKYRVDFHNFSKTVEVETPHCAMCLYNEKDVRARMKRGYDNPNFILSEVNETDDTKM
Test: Thallium Flux Assay (ROMK channel functional thallium flux, FLIPR-Tetra)
Settings: HEK293 cells stably expressing hROMK (hKir1.1); 30 min compound incubation
By convention, pIC50 is the negative base-10 log of a molar concentration.

>>> print(df.to_string())
                                   molecule  recorded_value
0  CC1=C(N2C(=O)C3(CCN(C[C@@H](O)c4ccc(-n5cnnn5)nc4C)CC3)CC2C)COC1=O (mixture of isomers) [Example 59]            7.30
1  CC1=C(N2CCC3(CCN(C[C@@H](O)c4ccc(-n5cnnn5)nc4)CC3F)C2=O)COC1=O (single isomer, unassigned) [Example 195]            8.00

Moving on to another molecule below.
Specify measured pIC50 for CC1=C(N2CCC3(CCN(C(C)(C)C(O)c4ccc(-n5cnnn5)nc4)CC3)C2=O)COC1=O (single isomer, unassigned) [Example 297] .
8.00

---

Target: hROMK (hKir1.1) (Homo sapiens, UniProt P48048)
Assay: Thallium Flux Assay (ROMK channel functional thallium flux, FLIPR-Tetra)
Details: HEK293 cells stably expressing hROMK (hKir1.1); 30 min compound incubation
Please note: IC50 exactly at 20 nM is FALSE. Only values below 20 nM get TRUE.

>>> print(df.to_string())
                                   compound  group
0  O=C1C=C(N2C=CC3(CCN(C[C@H](O)c4cnc(-n5cnnn5)cn4)CC3)C2=O)CO1  FALSE

Identify whether the compound CC1=C(N2CCC3(CCN(C[C@H](OC(C)C)c4ccc(-n5cnnn5)nc4)CC3)C2=O)COC1=O records IC50 below 20 nM.
FALSE

Identify whether the compound CC1=C(N2CCC3(CCN(CCc4ccc(-n5cnnn5)cn4)CC3)C2=O)COC1=O records IC50 below 20 nM.
TRUE

Identify whether the compound CC1=C(N2C(=O)C3(CC2C)CC2CCC(C3)N2C[C@@H](O)c2ccc(-n3cnnn3)nc2)COC1=O (single isomer, unassigned) [Example 134] records IC50 below 20 nM.
FALSE

Identify whether the compound CC1=C(N2C=CC3(CCN([C@H](C)Cc4ccc(-n5cnnn5)nn4)CC3)C2=O)COC1=O (single isomer, unassigned) records IC50 below 20 nM.
TRUE

Identify whether the compound CC1=C(N2CCC3(CCN(C[C@@H](O)c4ncc(-n5cnnn5)cn4)CC3)C2=O)COC1=O records IC50 below 20 nM.
FALSE
